- assay-procedure: qHTS for Inhibitors of the Aldehyde Dehydrogenase Family (ALDH1A2, ALDH1A3, ALDH2, ALDH3A1) (AID 2061307); note: nearly all actives have a fitted effect of over 50% in size
- measurement-setup: ALDH inhibition qHTS; series mostly up to 50.3 µM
Inconclusive results are not listed. The source made the active and inactive calls. Calls come from the whole dose curve; as a rule, active = well fitted inhibition curve with a large enough effect; inconclusive = small, poorly fitted or top-dose-only effect; inactive = no such curve, though single readings can be large or run the other way.
Outcome codes: y = active, n = inactive

>  <compound>
O=C(Nc1ccc(Cl)c(Cl)c1)Nc1nnc(NC2CCNCC2)s1

>  <class-assignment>
n

$$$$
>  <compound>
COc1ccc(C2Nc3ccccc3C(=O)N2Cc2ccccc2C(F)(F)F)cc1COc1ccc(NC(C)=O)cc1 (centres undefined)

>  <class-assignment>
y

$$$$
>  <compound>
COc1ccc(CC2NCCc3c2[nH]c2ccc(C)cc32)cc1OC (centres undefined)

>  <class-assignment>
n

$$$$
>  <compound>
COc1ccnc(NC(=S)N2CCN(c3ccccc3C(F)(F)F)CC2)c1

>  <class-assignment>
y

$$$$
>  <compound>
CCOc1ccc(Cc2nc(-c3c(C)nc4ccccn34)cs2)cc1

>  <class-assignment>
y

$$$$
>  <compound>
Cc1cccc(CNc2ccnc(-c3cccc4ccccc34)n2)c1

>  <class-assignment>
n

$$$$
>  <compound>
Cc1c(Cc2ccc3ccccc3n2)c2cc(F)ccc2n1CC(=O)O

>  <class-assignment>
y

$$$$
>  <compound>
COC(=O)[C@]1(Cc2ccc(O)c(CC=C(C)C)c2)OC(=O)C(O)=C1c1ccc(O)cc1

>  <class-assignment>
n

$$$$
>  <compound>
N#Cc1ccc(-c2cnc3[nH]cc(NC(=O)c4cccnc4)c3c2)cc1

>  <class-assignment>
y

$$$$
>  <compound>
Cc1ccc(CSc2ccc3nnc(CCNS(=O)(=O)c4ccc(C)cc4)n3n2)cc1

>  <class-assignment>
n

$$$$
>  <compound>
CC(C)c1ccccc1-c1ncc(F)c(NCc2ccc(-c3cccnc3)cc2)n1

>  <class-assignment>
y

$$$$
>  <compound>
CC/C=C/C(O)C(O)C1=C(C)C(=O)C2(O1)C(=O)NC(OC)(C(=O)c1ccccc1)C2O (centres undefined)

>  <class-assignment>
n

$$$$
>  <compound>
Cc1cccc(Nc2nc(C#N)nc(NC3CCCC3)n2)c1

>  <class-assignment>
y

$$$$
>  <compound>
CCOc1ccccc1-c1nnc2n1N=C(c1ccc(OC)cc1)CS2

>  <class-assignment>
y

$$$$
>  <compound>
Cc1cccc(OC2=NS(=O)(=O)c3ccccc32)c1

>  <class-assignment>
n

$$$$
>  <compound>
COc1cc2c(CCNC(C)=O)c[nH]c2cc1Cl

>  <class-assignment>
n

$$$$
>  <compound>
O=C(C1CCCCC1)N(CCN1CCN(c2ccccc2O)CC1)c1ccccn1

>  <class-assignment>
n

$$$$
>  <compound>
Cc1cc2occ(CN(C)CCN(C)Cc3cn(-c4cccc(C(F)(F)F)c4)c4ccccc34)c(=O)c2cc1C

>  <class-assignment>
n

$$$$
>  <compound>
COc1ccc(C2Nc3ccccc3C(=O)N2Cc2ccc(Cl)cc2)cc1COc1ccc(NC(C)=O)cc1 (centres undefined)

>  <class-assignment>
y

$$$$
>  <compound>
O=C(CCCCCCNC(=O)c1cnc(N(c2ccccc2)c2ccccc2)nc1)NO

>  <class-assignment>
n

$$$$
>  <compound>
O=C([C@H](Cc1ccc(O[S+](=O)([O-])c2cccc3cccnc23)cc1)N[S+](=O)([O-])c1ccccn1)N1CCN(c2ccccc2)CC1

>  <class-assignment>
n

$$$$
>  <compound>
O=C(O)c1cccc(-n2cccc2)c1

>  <class-assignment>
n

$$$$
>  <compound>
CCN(CC)CCOc1ccc(/C(=C(\Cl)c2ccccc2)c2ccccc2)cc1

>  <class-assignment>
n

$$$$
>  <compound>
O=Cc1c(-c2ccccc2)no[n+]1[O-]

>  <class-assignment>
y

$$$$
>  <compound>
CC(=O)N[C@@H](CC(=O)O)C(=O)N[C@@H](CCC(=O)O)C(=O)N[C@H](C(=O)N[C@@H](CC(=O)O)C(=O)Nc1ccc2c(C)cc(=O)oc2c1)C(C)C

>  <class-assignment>
n

$$$$
>  <compound>
CCCCN(CCCNC(=S)NCCCc1cnc[nH]1)c1ccc(Br)cn1

>  <class-assignment>
y

$$$$
>  <compound>
CCOC(=O)c1cccc(CNc2ccc(N(C)C(=O)Nc3ccccc3)cc2)c1

>  <class-assignment>
n

$$$$
>  <compound>
Cn1cnc(-c2nccc3c(=O)[nH]c(OCCCC(F)(F)F)nc23)c1

>  <class-assignment>
n

$$$$
>  <compound>
O=C1NC(=O)/C(=C/c2cccn2-c2ccc(P(O)O)cc2)N1

>  <class-assignment>
n

$$$$
>  <compound>
COc1cc(/C=C/C(=O)OC[C@H]2O[C@H](O[C@]3(CO)O[C@H](CO)[C@@H](O)[C@@H]3O)[C@H](O)[C@@H](O)[C@@H]2O)cc(OC)c1O

>  <class-assignment>
n

$$$$
>  <compound>
O=C(Cc1ccc(Cl)c(Cl)c1)Nc1ccc(S(=O)(=O)O)cc1

>  <class-assignment>
n

$$$$
>  <compound>
O=C(Nc1ccc2ccccc2c1)Nc1nnc(-c2cccnc2)s1

>  <class-assignment>
n

$$$$
>  <compound>
COc1ccc(-n2ccnc(NCc3ccc(Cl)cc3)c2=O)cc1

>  <class-assignment>
n

$$$$
>  <compound>
CCOC(=O)c1cccc(-n2cccc2/C=C2\NC(=O)N(CC(=O)O)C2=O)c1

>  <class-assignment>
n

$$$$
>  <compound>
O=C1Cc2cc(S(=O)(=O)N3CCN(c4ccc(C(F)(F)F)cc4)CC3)ccc2N1

>  <class-assignment>
n

$$$$
>  <compound>
CN1CCN(c2cccc(Nc3nn4c(=O)c5ccc(F)cc5nc4s3)c2)CC1

>  <class-assignment>
n

$$$$
>  <compound>
OC[C@H]1O[C@@H](O[C@H]2[C@H](O)[C@@H](CO)O[C@@H](OCc3ccccc3)[C@@H]2O[C@@H]2OC[C@](O)(CO)[C@H]2O)[C@H](O)[C@@H](O)[C@@H]1O

>  <class-assignment>
n

$$$$
>  <compound>
Cc1ncc(-c2ccnc(Nc3ccc(S(C)(=O)=O)cc3)n2)n1C(C)C

>  <class-assignment>
y

$$$$
>  <compound>
CC(=O)Nc1ccc(Nc2nc3c(S(=O)(=O)c4cccc(Cl)c4)nnn3c3ccsc23)cc1

>  <class-assignment>
n

$$$$
